# method-notes: Intrinsic clearance in human liver microsomes
# Format: ADME, microsome
# particulars: read-out: CLH
measured-attribute: microsomal CLint (µL/min/mg)
Unit µL/min/mg implied. Number only.

Consider the compound `CC(C)(N)c1nc(-c2ccc(OC(F)(F)F)cc2)c[nH]1` and give its measured microsomal CLint.
8

====

# method-notes: Dissociation constant, pKa of the compound
# Type: physicochemical
measured-attribute: pKa
Answer field: number only, no words.

CC(C)(N)c1nc(-c2ccc(OC(F)(F)F)cc2)c[nH]1 : 7.9
COC[C@@](C)(N)c1nc(-c2ccc(OC(F)(F)F)cc2)c[nH]1 : 7.1
NC1(Cc2nc(-c3ccc(OC(F)(F)F)cc3)c[nH]2)COC1 : 6.4
C[C@](N)(CF)c1nc(-c2ccc(OC(F)(F)F)cc2)c[nH]1 : 6.4

Consider the molecule `NC(CF)(CF)c1nc(-c2ccc(OC(F)(F)F)cc2)c[nH]1` and give its measured pKa.
5.9

====

# method-notes: Clearance in rat blood
# Format: ADME
measured-attribute: clearance
Lab note: write values as number then unit, every time.

Consider the molecule `NC1(Cc2nc(-c3ccc(OC(F)(F)F)cc3)c[nH]2)COC1` and give its measured clearance.
5 mL/min/kg

====

# method-notes: Intrinsic clearance in human hepatocytes assessed per million cells
# Assay type: ADME, cell-based, Hepatocyte
# particulars: read-out: CLH
measured-attribute: hepatocyte CLint

Consider the compound `CC(C)(N)c1nc(-c2ccc(OC(F)(F)F)cc2)c[nH]1` and give its measured hepatocyte CLint.
< 6 µL/min/1e6 cells
